# target under test: T1, HTRA4, P83105
# T1 sequence (P83105 378-476, limits assumed, looked up): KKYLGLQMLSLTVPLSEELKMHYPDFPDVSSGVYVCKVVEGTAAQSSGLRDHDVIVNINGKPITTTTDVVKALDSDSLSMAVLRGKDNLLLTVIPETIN
# procedure summary: holdup assay
# Design: key: below the threshold = too weak to quantify, mostly under pKd 3.1 to 4
# reported conditions: plain residues with an end cap or a label only (N-terminal biotin on a linker: ado-ado)
parameter measured: pKd

>  <binder>
QSPANIYYKV [EFNB1, P52799]

>  <parameter measured>
pKd

>  <measurement>
below the threshold

$$$$
>  <binder>
SKSNFGSEPL [KIF17, Q9P2E2]

>  <parameter measured>
pKd

>  <measurement>
below the threshold

$$$$
>  <binder>
RRLPGKETMA [GRIK2, Q13002]

>  <parameter measured>
pKd

>  <measurement>
below the threshold

$$$$
>  <binder>
RRRESYSTTV [EVI5, O60447]

>  <parameter measured>
pKd

>  <measurement>
4.08

$$$$
>  <binder>
LRSPRTPSEV [OR10G3, Q8NGC4]

>  <parameter measured>
pKd

>  <measurement>
4

$$$$
>  <binder>
IPLDGETEEL [MYOZ1, Q9NP98]

>  <parameter measured>
pKd

>  <measurement>
below the threshold

$$$$
>  <binder>
YLEPVLSSEL [ATP2A2, P16615;P16615-3]

>  <parameter measured>
pKd

>  <measurement>
below the threshold

$$$$
>  <binder>
NLSIEKETKL [ASNSD1, Q9NWL6]

>  <parameter measured>
pKd

>  <measurement>
below the threshold

$$$$
>  <binder>
MLSKQSESAI [FLVCR1, Q9Y5Y0]

>  <parameter measured>
pKd

>  <measurement>
3.91

$$$$
>  <binder>
FNSYSLTGYV [CLDN2, P57739]

>  <parameter measured>
pKd

>  <measurement>
4.08

$$$$
>  <binder>
EVEEFPETSV [TRPV3, Q8NET8]

>  <parameter measured>
pKd

>  <measurement>
below the threshold

$$$$
>  <binder>
LKVPPEERLI [CRB2, Q5IJ48]

>  <parameter measured>
pKd

>  <measurement>
below the threshold

$$$$
>  <binder>
GQEEQVTTRL [TRPC5, Q9UL62]

>  <parameter measured>
pKd

>  <measurement>
below the threshold

$$$$
>  <binder>
QSLNRMEYIV [JAG1, P78504]

>  <parameter measured>
pKd

>  <measurement>
below the threshold

$$$$
